Each record here notes measured growth.
system: EKVX NSCLC; assay: NCI-60 one-dose screen, 48 h (100 = growth as untreated, 0 = no growth, -100 = all killed); settings: 10 µM
About 83,000 compounds went through this panel and 20% of them were active in at least one assay; those are over-represented in the sample as a whole. Active and inactive are the calls of the source. How the source made its calls: active means growth percent below 10; inactive means the rest.

CC(=O)N[C@H](C(=O)N[C@@H](CCCNC(=N)N)C(=O)N[C@@H](CCCCN)C(=O)N[C@@H](CCCNC(=N)N)C(=O)N[C@]1(C)CCC/C=C\CCC[C@@](C)(C(=O)N[C@@H](CC(C)C)C(=O)N[C@@H](CC(C)C)C(=O)N[C@@H](CCC(N)=O)C(=O)N[C@@H](CCC(=O)O)C(=O)N[C@@H](CCCNC(=N)N)C(=O)N[C@@H](CCC(=O)O)C(=O)N[C@@H](CC(C)C)C(=O)N[C@H](C(=O)N[C@@H](CCC(=O)O)C(N)=O)C(C)C)NC(=O)[C@H](CCCNC(=N)N)NC(=O)[C@H](CC(C)C)NC1=O)C(C)C :: 101% (inactive)
OC[C@H]1OC([S-])[C@H](O)[C@@H](O)[C@@H]1O.[Au+] (some centres undefined) :: 106% (inactive)
S=C(NCc1ccccc1)NCc1ccccc1 :: 102% (inactive)

Request: growth, test system EKVX NSCLC, entry COc1cc2c(Nc3ccc(S(N)(=O)=O)cc3)ncnc2c(OC)c1OC
100% (inactive)
